Test system: SW-620 colon
Test: NCI-60 one-dose screen, 48 h (100 = growth as untreated, 0 = no growth, -100 = all killed)
Details: 10 µM unless noted
Experimental: Growth inhibition of the SW-620 human tumor cell line is measured as a screen for anti-cancer activity. Cells are grown in 96 well plates and exposed to the test compound for 48 hours. Compounds are tested at a single concentration, which is 10^-5 M for most compounds. The reported endpoint is percent growth (GI% or GIPRCNT), where numbers from 0 - 100% represent growth inhibition, and numbers from -100% - 0 represent cell death. For example, a value of 40 represents 60% growth inhibition. […]
About 83,000 compounds went through this panel and 20% of them were active in at least one assay; those are over-represented in the sample as a whole.
Below: a set of entries, each annotated with reported growth.
recorded metric: growth (%)

INSERT INTO results (compound, value_reported) VALUES
  ('Cc1ccc(-c2cc3nc(-c4ccccc4)nc(C(Cl)Cl)n3n2)cc1', -48.2),
  ('CCN(CC)CCCNc1nccc2ccc(Cl)cc12', 104),
  ('CC(=O)Nc1ccc(/C=C/C(=O)c2ccccc2)cc1', 53.2),
  ('c1ccc(-c2nnc(-c3ccccn3)s2)nc1', 99.8),
  ('C=C(C)[C@@H]1C[C@@H]2Cc3ccc(Cl)c(C)c3N1O2', 106),
  ('C=C[C@@H]1C[C@@H]2Cc3cc(Cl)ccc3N1O2', 96.7),
  ('Cc1ccc(S(=O)(=O)n2cc(C(=O)C(=O)N3CCOCC3)c3ccccc32)cc1', 101),
  ('C=C1C(=O)O[C@H]2[C@H]1CC/C(Cn1cc(CNC(=O)Cc3cn(C(=O)c4ccc(Cl)cc4)c4ccc(OC)cc34)nn1)=C\CC[C@@]1(C)O[C@@H]21', -67.4),
  ('COc1cc(Nc2ncccc2C(=O)NCc2cn(Cc3cccc(Oc4ccccc4)c3)nn2)cc(OC)c1', 31.4),
  ('O=[N+]([O-])c1ccc(-c2cn(-c3ccccc3)c(-c3ccccc3)n2)cc1', 95),
  ('CCN(CC)CCCC(C)Nc1c2ccc(Cl)cc2nc2cc(OC)c(OC)cc12 (stereo unspecified)', -25.2),
  ('COc1ccc2c(c1)cn1c3ccc(OC)cc3[nH]c(=O)c21', -38.9),
  ('C=C1CCC2C(C)(CO)C(O)CCC2(C)C1CC(NCc1ccccc1)C1=CCOC1=O (stereo unspecified)', 97.3),
  ('CC(C)(C)OC(=O)NC(CSCc1ccccc1)C(=O)ON1C(=O)CCC1=O (stereo unspecified)', 105),
  ('Cc1ccc2[nH]c(=O)c3c(c2c1)Oc1ncn2nc(-c4ccco4)nc2c1C3c1ccc(Cl)cc1 (stereo unspecified)', 99),
  ('COc1cc2c(=O)n(C3CCCCCC3)c3c4cc[nH]c4ncc3c2cc1OC', 70.8),
  ('C=C1CCC2C3(C)COC(C)(C)OC3CCC2(C)C1C/C=C1/C(=O)OCC1Oc1ccccc1OC (stereo unspecified)', 21.4),
  ('COc1ccc(-c2cc3c(OC)c(OC)c(OC)cc3oc2=O)cc1', 25.1),
  ('COc1ccc(CN2CCc3c(Sc4ccccc4)nc(N)nc3C2=O)c(OC)c1', 81.2),
  ('COc1ccc2cc(-c3ccc(-c4ccc(C(=N)N)cc4)s3)ccc2c1', 84.6),
  ('N[C@H]1CN(C(=O)c2cc3cc(Br)c(F)c(F)c3[nH]2)C[C@@H]1O', 101);

Taken from PubChem BioAssay (NCI).
